Reference source: patent US20250376519A1

For each record, write down the corresponding EC50.
tested_target: T1, human DLL3 on cells (human, UniProt Q9NYJ7 27-618)
T1 construct: Endogenous on H1184 and SHP77; Cell line is named under assay; also called H1184; DLL3/H82
T1 sequence: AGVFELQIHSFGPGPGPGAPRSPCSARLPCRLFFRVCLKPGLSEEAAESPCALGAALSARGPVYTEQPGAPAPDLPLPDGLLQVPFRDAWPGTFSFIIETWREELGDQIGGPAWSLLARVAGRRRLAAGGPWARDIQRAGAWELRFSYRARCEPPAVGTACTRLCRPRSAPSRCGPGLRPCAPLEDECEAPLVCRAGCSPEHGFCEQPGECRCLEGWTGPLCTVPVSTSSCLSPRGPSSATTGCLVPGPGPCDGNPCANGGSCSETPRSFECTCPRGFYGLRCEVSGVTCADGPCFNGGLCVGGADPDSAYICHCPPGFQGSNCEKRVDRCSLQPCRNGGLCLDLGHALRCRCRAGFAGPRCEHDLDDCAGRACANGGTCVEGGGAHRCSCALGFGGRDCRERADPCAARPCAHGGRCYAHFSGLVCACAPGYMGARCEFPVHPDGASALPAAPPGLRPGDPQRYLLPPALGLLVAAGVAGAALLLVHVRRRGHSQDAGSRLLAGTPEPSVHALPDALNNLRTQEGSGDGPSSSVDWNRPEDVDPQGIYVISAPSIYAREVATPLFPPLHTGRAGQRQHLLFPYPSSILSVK
run_description: flow cytometry, DLL3/H82 cells
Give the figure together with its unit, number first.

Field: example entries. Status: answers known.
{"columns": ["binder", "EC50"],
 "data": [
  ["hu110L1H5 (antibody, human IgG1, kappa, V domains shown) VH: EVQLVQSGAEVKKPGASVKVSCKTSGYTFTDYYMNWVRQAPGQSLEWMGIINPYTGGTSYTQKFKGRVTITVDKSASTAYMELSSLRSEDTAVYYCARHFYDSSYLTYSTMDYWGQGTTVTVSS VL: DIVMTQSPDSLAVSLGERATINCKASENVGIFVSWYQQKPGQSPKLLIYGASNRYTGVPDRFSGSGSATDFTLTISSLQAEDVAVYYCGQSHSYPLTFGQGTKLEIKR", "1.61 nM"],
  ["hu110L1H6 (antibody, human IgG1, kappa, V domains shown) VH: EVQLVQSGAEVKKPGASVKVSCKTSGYTFTDYYMNWVRQAPGQSLEWMGIINPYNVGTSYTQKFKGRVTITVDKSASTAYMELSSLRSEDTAVYYCARHFYDSSYLTYSTMDYWGQGTTVTVSS VL: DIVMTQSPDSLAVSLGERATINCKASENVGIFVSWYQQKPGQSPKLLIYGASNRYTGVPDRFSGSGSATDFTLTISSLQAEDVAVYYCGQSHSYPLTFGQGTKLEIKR", "1.66 nM"],
  ["hu110L2H3 (antibody, human IgG1, kappa, V domains shown) VH: EVQLVQSGAEVKKPGASVKVSCKTSGYTFTDYYMNWVRQAPGQSLEWMGIINPYQGGTSYTQKFKGRVTITVDKSASTAYMELSSLRSEDTAVYYCARHFYDSSYLTYSTMDYWGQGTTVTVSS VL: NIVMTQSPKSLAVSLGERATINCKASENVGIFVSWYQQKPGQSPKLLIYGASNRYTGVPDRFSGSGSATDFTLTISSLQAEDVADYYCGQSHSYPLTFGQGTKLEIKR", "1.32 nM"],
  ["hu110L1H1 (antibody, human IgG1, kappa, V domains shown) VH: EVQLVQSGAEVKKPGASVKVSCKASGYTFTDYYMNWVRQAPGQRLEWMGIINPYNGGTSYTQKFKGRVTITVDKSASTAYMELSSLRSEDTAVYYCARHFYDSSYLTYSTMDYWGQGTTVTVSS VL: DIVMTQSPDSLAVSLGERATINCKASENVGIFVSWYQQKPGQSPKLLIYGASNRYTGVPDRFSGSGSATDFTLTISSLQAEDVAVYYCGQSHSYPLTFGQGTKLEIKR", "1.15 nM"],
  ["hu110L2H6 (antibody, human IgG1, kappa, V domains shown) VH: EVQLVQSGAEVKKPGASVKVSCKTSGYTFTDYYMNWVRQAPGQSLEWMGIINPYNVGTSYTQKFKGRVTITVDKSASTAYMELSSLRSEDTAVYYCARHFYDSSYLTYSTMDYWGQGTTVTVSS VL: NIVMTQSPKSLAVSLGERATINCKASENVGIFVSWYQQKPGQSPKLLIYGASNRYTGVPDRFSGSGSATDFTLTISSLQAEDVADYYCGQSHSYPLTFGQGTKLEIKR", "1.4 nM"]
]}

Kindly give each listed record's EC50.
1. hu110L2H4 (antibody, human IgG1, kappa, V domains shown) VH: EVQLVQSGAEVKKPGASVKVSCKTSGYTFTDYYMNWVRQAPGQSLEWMGIINPYSGGTSYTQKFKGRVTITVDKSASTAYMELSSLRSEDTAVYYCARHFYDSSYLTYSTMDYWGQGTTVTVSS VL: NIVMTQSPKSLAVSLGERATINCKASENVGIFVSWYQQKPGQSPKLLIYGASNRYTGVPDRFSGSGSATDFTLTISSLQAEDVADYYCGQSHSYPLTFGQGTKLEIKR
2. hu110L2H1 (antibody, human IgG1, kappa, V domains shown) VH: EVQLVQSGAEVKKPGASVKVSCKASGYTFTDYYMNWVRQAPGQRLEWMGIINPYNGGTSYTQKFKGRVTITVDKSASTAYMELSSLRSEDTAVYYCARHFYDSSYLTYSTMDYWGQGTTVTVSS VL: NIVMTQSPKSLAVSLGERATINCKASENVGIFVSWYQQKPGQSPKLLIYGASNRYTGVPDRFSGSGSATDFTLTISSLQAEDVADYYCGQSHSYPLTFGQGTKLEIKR
3. hu110L1H4 (antibody, human IgG1, kappa, V domains shown) VH: EVQLVQSGAEVKKPGASVKVSCKTSGYTFTDYYMNWVRQAPGQSLEWMGIINPYSGGTSYTQKFKGRVTITVDKSASTAYMELSSLRSEDTAVYYCARHFYDSSYLTYSTMDYWGQGTTVTVSS VL: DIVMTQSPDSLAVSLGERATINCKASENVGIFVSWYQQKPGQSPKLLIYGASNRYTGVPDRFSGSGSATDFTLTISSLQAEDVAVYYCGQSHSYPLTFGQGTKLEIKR
4. hu110L1H2 (antibody, human IgG1, kappa, V domains shown) VH: EVQLVQSGAEVKKPGASVKVSCKTSGYTFTDYYMNWVRQAPGQSLEWMGIINPYNGGTSYTQKFKGRVTITVDKSASTAYMELSSLRSEDTAVYYCARHFYDSSYLTYSTMDYWGQGTTVTVSS VL: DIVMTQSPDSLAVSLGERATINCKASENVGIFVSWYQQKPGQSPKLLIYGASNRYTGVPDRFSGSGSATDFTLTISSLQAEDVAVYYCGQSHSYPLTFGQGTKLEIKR

Reply:
["1.41 nM", "1.25 nM", "1.51 nM", "1.31 nM"]
